tested on: NCI-H226 lung; assay: NCI-60 one-dose screen, 48 h (100 = growth as untreated, 0 = no growth, -100 = all killed); conditions: 10 µM unless noted
The panel holds about 83,000 compounds, 20% with a hit somewhere; the sample as a whole holds those more often.
The following compounds are listed with their measured growth values.
Reply numerically in %, unit not repeated.

Worked examples, 6 compounds total:
| compound | growth, % |
| --- | --- |
| Cc1cc(C(=O)CSc2nc3ccccc3c(=O)[nH]2)c(C)n1C | 97.8 |
| COc1cc2nc(Cl)nc(NCCO)c2cc1OC | 98.2 |
| Nc1c(C(=O)c2ccc(F)cc2)sc2nc3c(cc12)CCCC3 | 85.4 |
| NS(=O)(=O)c1ccc(CN2C(=O)c3cccc4cccc(c34)C2=O)cc1 | 86.1 |
| O=C(CCCn1c2c(sc3ccccc32)c(=O)n2nnc(-c3ccccc3)c12)NCCc1cnc[nH]1 | 98.5 |
| O=C(COc1ccccc1)N1N=C(c2ccc(Cl)cc2)CC1c1c[nH]c2ccccc12 (stereo unspecified) | 65.2 |

Exercise: Specify reported growth for the compound shown: COc1ccc(-c2cn[nH]c2-c2cc(OC)c3c(c2)OCO3)cc1
Key: 47.7

Exercise: State its growth for this compound: CC(Br)C(O)c1cc2c(cc1Br)OCO2 (stereo unspecified)
Key: 106

Exercise: Quick one: give measured growth for Clc1cccc(Cl)c1Cn1c(-c2cncs2)nc2ccccc21
Key: 88.6

Exercise: Using known records, supply growth for Cc1ccc(Nc2ncnc3c2sc2ncccc23)cc1
Key: 91.7

Exercise: State, in one line, measured growth of CCCCCC(=O)OCc1ccccc1
Key: 103

* * *

test system: OVCAR-4 ovarian; test: NCI-60 one-dose screen, 48 h; conditions: 10 µM unless noted
This is part of a sample that, as a whole, favours compounds with a hit. Of some 83,000 tested, about 20% had one in any assay. Active and inactive are the calls of the source. The calls were made as follows: active = growth percent below 10; inactive = the rest.
Can you answer with just one of these options? active, inactive

For orientation, consider the following solved cases.
| compound | class_assignment |
| --- | --- |
| NC(N)=NC(N)=Nc1ccccc1-c1ccccc1 | inactive |
| COc1ccc2c(c1)NC(=O)CN2c1nc(NC2CC2)nc2ccccc12 | inactive |

API: the following record is the query input.
Exercise: Which outcome was entered for the compound COc1cc(/C=C/C(=O)c2ccc(NC(=O)CN3CCN(c4cc5c(cc4F)c(=O)c(C(=O)O)cn5C4CC4)CC3)cc2)cc(OC)c1OC in this test?
Key: inactive

* * *

test system: MDA-MB-231 breast; experiment: NCI-60 one-dose screen, 48 h (100 = growth as untreated, 0 = no growth, -100 = all killed); settings: 10 µM unless noted
About 83,000 compounds went through this panel and 20% of them were active in at least one assay; those are over-represented in the sample as a whole.
# class 1 = growth below 20% (exclusive); class 0 = growth at/above 20%

| compound | class_assignment |
| --- | --- |
| CCC(=O)Oc1cc(/C=C/C(=O)O[C@H]2C[C@H]3CN4CCc5c([nH]c6cc(OC)ccc56)[C@@H]4C[C@@H]3[C@@H](C(=O)OC)[C@@H]2OC)ccc1OC | class 0 |

Exercise: is_below(growth, 20%) for C#CCN1C(=O)/C(=c2\sc3n(c2=O)NC2C(N=3)N(CC)C(=O)N2CC)c2ccccc21 (stereo not drawn) ?
Key: class 0

Exercise: Lab note: confirm whether the reported growth for this compound is below 20%, equality not counting. compound: CCC#CC[C@H]1C/C=C2/C(=O)C=C[C@@H]2C/C=C\CCCC(=O)O1
Key: class 1

Exercise: hey, is growth for CC(C)C[C@H](NC(=O)[C@@H](Cc1ccccc1)n1ccc(Nc2ccccc2)cc1=O)B(O)O lower than 20% or not?
Key: class 1

* * *

Overview of reported growth across a group of molecules:
system: SK-OV-3 ovarian; experiment: NCI-60 one-dose screen, 48 h (100 = growth as untreated, 0 = no growth, -100 = all killed); settings: 10 µM unless noted
The panel holds about 83,000 compounds, 20% with a hit somewhere; the sample as a whole holds those more often.
Please state the figure in %; there is no need to write the unit.

Below: 4 molecules and their reported growth.
| molecule | quantitative_readout |
| --- | --- |
| COC1=CC(c2ccc[nH]2)=N/C1=C\c1[nH]c(C)c(C(=O)CCCCC(=O)NCc2ccccc2)c1C | 83.3 |
| CN(C)C1CCC(NC2=CC(=O)C=CC2=O)CC1 (stereo not given) | 119 |
| COc1cc(/C=C2\CCCC3=C2NC(C)=NC3c2cc(OC)c(OC)c(OC)c2)cc(OC)c1OC (stereo not given) | 43.9 |
| O=C(CNc1c(Cl)cccc1Cl)Nc1ccc(-c2nc3ccccc3s2)cc1 | 97.8 |

Exercise: Report measured growth on SK-OV-3 ovarian; entry: OC1CC2c3ccccc3C1c1ccccc12 (stereo not given)
Key: 112

* * *

test system: A549/ATCC NSCLC; experiment: NCI-60 one-dose screen, 48 h (100 = growth as untreated, 0 = no growth, -100 = all killed); conditions: 10 µM unless noted
This is part of a sample that, as a whole, favours compounds with a hit. Of some 83,000 tested, about 20% had one in any assay.
Classify on growth using zone 1 = under 40%, zone 2 = from 40% up to 90%, zone 3 = 90% and over

| molecule | class_assignment |
| --- | --- |
| CCN(CC)CCC(=O)c1cccc2ccccc12 | zone 3 |

Exercise: Exam item: assign C=CCOc1ccc(/C(O)=C2\C(=O)C(=O)N(c3nccs3)C2c2ccccc2F)cc1 (centres undefined) to the correct category.
Key: zone 3

Exercise: # classify by growth band: CNC(=O)c1cc(Oc2ccc3c(c2)sc2nc(-c4ccc(Cl)cc4)cn23)ccn1
Key: zone 2

Exercise: Band for CCOP(=O)(CCN1CCN(CCCCCOc2cc3c(cc2OC)C(=O)N2CCC[C@H]2C=N3)CC1)OCC ?
Key: zone 3

Exercise: Place this molecule in its band: COc1ccc(-n2cnc3c(sc4ncc(Cl)cc43)c2=O)cc1
Key: zone 2

Exercise: Entry Cc1ccc(C2=NN(c3ccc(S(N)(=O)=O)cc3)C(c3cn(-c4ccccc4)nc3-c3ccccc3)C2)cc1 (centres undefined) belongs to which category?
Key: zone 2

Exercise: Which growth category applies to Cc1cc(C(=O)CSc2nc3ccccc3c(=O)[nH]2)c(C)n1C here?
Key: zone 2

Exercise: Hi, small favor: classify COC(=O)CCCCN=Cc1c(O)c(O)c(C(C)C)c2cc(C)c(-c3c(C)cc4c(C(C)C)c(O)c(O)c(C=NCCCCC(=O)OC)c4c3O)c(O)c12 by its growth when you get a moment.
Key: zone 1

Exercise: Form: Item = N=C(N)c1ccc(-c2ccc(-c3ccc(Cl)cc3)o2)nc1 ; Class = ?
Key: zone 1

* * *

system: NCI-H460 lung; experiment: NCI-60 one-dose screen, 48 h (100 = growth as untreated, 0 = no growth, -100 = all killed); details: 10 µM unless noted
The panel holds about 83,000 compounds, 20% with a hit somewhere; the sample as a whole holds those more often.
List of growth values.
Unit % implied. Number only.

Solved entries (count: 8):
| compound | measurement_type | unit_tag | quantitative_readout |
| --- | --- | --- | --- |
| COc1cc(OC)cc(-c2n[nH]nc2-c2ccc3c(c2)OCO3)c1 | growth | % | 12 |
| COc1ccc(/C=c2\sc3n(c2=O)C2C(NN=3)N(C)C(=O)N2C)cc1 (stereo not given) | growth | % | 9.54 |
| C=CCOc1ccc(/C(O)=C2\C(=O)C(=O)N(c3nccs3)C2c2ccccc2F)cc1 (stereo not given) | growth | % | 94.4 |
| NS(=O)(=O)c1ccc(NCC(=O)Nc2ccc(-c3nc4ccccc4s3)cc2)cc1 | growth | % | 92.5 |
| Cc1ccc2nc(-c3c(CCCO)noc3N)[nH]c(=O)c2c1 | growth | % | 108 |
| CC(Br)C(OC(=O)c1ccccc1Cl)c1cc2c(cc1Br)OCO2 (stereo not given) | growth | % | 91.8 |
| CN(C)C/C=C/C(=O)Nc1cc2c(Nc3ccc(F)c(Cl)c3F)ncnc2cc1OCCOC(F)F | growth | % | 36.6 |
| Cc1oc2nc[nH]c(=O)c2c1C(=O)/C=C/c1ccc(Cl)cc1Cl | growth | % | 93.4 |

Exercise: Send back NCI-H460 lung growth of O=S(=O)(NCCCNc1cc(-c2cn(-c3ccccc3)nc2-c2cccc(O)c2)ccn1)c1ccc(C(F)(F)F)cc1 only.
Key: 22.2

Exercise: Provide growth, system NCI-H460 lung, entry COc1cc(C2C=C(C)N=C3SC(C)=NN32)cc(OC)c1OC (stereo not given)
Key: 114

* * *

system: OVCAR-4 ovarian; experiment: NCI-60 one-dose screen, 48 h (100 = growth as untreated, 0 = no growth, -100 = all killed); settings: 10 µM unless noted
The panel holds about 83,000 compounds, 20% with a hit somewhere; the sample as a whole holds those more often.
Measured growth by item
// units = %; emit number, no label

These solved cases illustrate the format of a correct answer.
| compound | growth / % |
| --- | --- |
| CCCC(C(=O)OCC)C(C)OC(=O)OCC (stereo unspecified) | 108 |
| CC(Br)C(OC(=O)c1ccccc1Cl)c1cc2c(cc1Br)OCO2 (stereo unspecified) | 77.9 |

Exercise: State, in one line, measured growth of COc1cc(/C=C2\C=C(c3ccc(F)cc3)N(Cc3ccccc3)C2=O)cc(OC)c1OC
Key: 51

Exercise: Give a short answer stating reported growth for O=c1oc2c([nH]c3ccc4ccccc4c32)c2ccccc12 .
Key: 109

Exercise: Using the record for c1ccc(CCn2nnc3c(Nc4ccc(N5CCOCC5)cc4)ncnc32)cc1 , state its measured growth.
Key: 89.3
